- ASSAY PROTOCOL: Drug metabolism and pharmacokinetics, IV and oral dosing
- Format: in vivo
- TEST SETTINGS: in vivo; IV dosing
MEASURE: half-life (h)
One number for each entry, in h.

{"RECORD SMILES": "CC(=O)Nc1ccc(C(=O)Nc2ccc(Cl)c(-c3nccc4ccccc34)c2)c(Cl)c1", "UNIT ABBREV": "h", "half-life": 1.31}

Continue with the compound presented below.
Prompt line: Give the reported value of half-life for this record: `CS(=O)(=O)c1ccc(C(=O)Nc2ccc(Cl)c(-c3ccccn3)c2)c(Cl)c1`
Response line: 1.32

* * *

- ASSAY PROTOCOL: Drug metabolism and pharmacokinetics, IV and oral dosing
- Type: in vivo
- TEST SETTINGS: in vivo; Oral dosing
MEASURE: Cmax (ng/mL)
One number for each entry, in ng/mL.

{"COMPOUND": "CS(=O)(=O)c1ccc(C(=O)Nc2ccc(Cl)c(-c3ccccn3)c2)c(Cl)c1 [GDC-0449]", "UNIT ABBREV": "ng/mL", "Cmax": 2760}

Field: next compound
Prompt line: // Input: CC(=O)Nc1ccc(C(=O)Nc2ccc(Cl)c(-c3nccc4ccccc34)c2)c(Cl)c1 [ABI2088] . Output its Cmax only.
Response line: 1000

* * *

- ASSAY PROTOCOL: Drug metabolism and pharmacokinetics, IV and oral dosing
- Assay type: in vivo
- TEST SETTINGS: in vivo; IV dosing
MEASURE: clearance (mL/min/kg)
Answers are plain numbers, in mL/min/kg.

{"RECORD SMILES": "CC(=O)Nc1ccc(C(=O)Nc2ccc(Cl)c(-c3nccc4ccccc34)c2)c(Cl)c1", "UNIT ABBREV": "mL/min/kg", "MEASURED RESULT": 12.1}

As a next step, examine the molecule that follows.
Prompt line: Give the measured clearance for `CS(=O)(=O)c1ccc(C(=O)Nc2ccc(Cl)c(-c3ccccn3)c2)c(Cl)c1`
Response line: 4.65
